Biological target: RaCYP51-F5 + RaCPR (strain Y-F5/CPR and variants) (Rhizopus delemar, UniProt I1CTV4, A291V)
Construct: full-length, codon-optimized, C-terminal GGR linker and 6xHis; co-expressed with 6xHis RaCPR in S. cerevisiae ADΔΔ deleted of native ERG11; crude membranes; ~60 kDa; with NADPH--cytochrome P450 reductase
Sequence (I1CTV4 whole entry, stated change not applied): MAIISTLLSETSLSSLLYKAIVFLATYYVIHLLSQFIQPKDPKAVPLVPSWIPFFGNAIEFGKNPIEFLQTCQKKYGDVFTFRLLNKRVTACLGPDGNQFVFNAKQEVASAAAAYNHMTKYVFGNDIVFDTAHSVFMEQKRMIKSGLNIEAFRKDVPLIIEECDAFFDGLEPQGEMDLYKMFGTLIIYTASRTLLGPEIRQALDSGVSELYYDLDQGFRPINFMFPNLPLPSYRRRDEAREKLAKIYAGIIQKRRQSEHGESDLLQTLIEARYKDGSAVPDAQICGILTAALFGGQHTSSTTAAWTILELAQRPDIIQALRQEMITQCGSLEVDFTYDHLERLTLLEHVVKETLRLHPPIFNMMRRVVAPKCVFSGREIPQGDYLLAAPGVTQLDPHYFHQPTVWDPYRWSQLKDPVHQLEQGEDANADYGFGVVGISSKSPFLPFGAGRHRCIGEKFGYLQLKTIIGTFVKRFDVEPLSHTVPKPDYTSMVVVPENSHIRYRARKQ
Sequence (I1CM61 whole entry, stated change not applied, further chain): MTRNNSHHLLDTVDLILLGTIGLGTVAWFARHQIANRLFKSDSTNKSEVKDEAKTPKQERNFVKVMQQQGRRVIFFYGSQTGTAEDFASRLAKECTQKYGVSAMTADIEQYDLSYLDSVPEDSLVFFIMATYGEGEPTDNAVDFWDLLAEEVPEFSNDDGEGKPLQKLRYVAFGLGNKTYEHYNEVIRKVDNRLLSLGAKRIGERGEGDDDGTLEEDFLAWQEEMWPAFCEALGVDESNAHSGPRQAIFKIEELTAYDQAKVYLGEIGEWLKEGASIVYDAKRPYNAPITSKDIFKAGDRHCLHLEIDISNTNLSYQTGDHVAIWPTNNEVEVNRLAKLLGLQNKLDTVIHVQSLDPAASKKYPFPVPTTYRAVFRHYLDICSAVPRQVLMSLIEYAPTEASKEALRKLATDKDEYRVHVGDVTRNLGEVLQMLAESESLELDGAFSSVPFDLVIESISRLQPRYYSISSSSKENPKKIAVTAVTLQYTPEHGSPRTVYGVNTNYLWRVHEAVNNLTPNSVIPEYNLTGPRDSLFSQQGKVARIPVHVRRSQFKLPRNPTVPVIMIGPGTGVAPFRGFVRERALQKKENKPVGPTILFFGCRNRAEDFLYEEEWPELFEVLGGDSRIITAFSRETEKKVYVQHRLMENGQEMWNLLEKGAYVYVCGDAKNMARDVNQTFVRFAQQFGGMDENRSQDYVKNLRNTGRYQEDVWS
Experiment: inhibition of BOMCC hydrolysis in crude membranes, fluorescence
pIC50: −log10 of the molar value.
property.label: pIC50

smiles_string=C[C@@H](c1ncncc1F)[C@](O)(Cn1cncn1)c1ccc(F)cc1F observed=6.30
smiles_string=CC[C@@H]([C@H](C)O)n1ncn(-c2ccc(N3CCN(c4ccc(OC[C@@H]5CO[C@@](Cn6cncn6)(c6ccc(F)cc6F)C5)cc4)CC3)cc2)c1=O observed=7.26

###

Target: RaCYP51-F5 + RaCPR (strain Y-F5/CPR and variants) (Rhizopus delemar, UniProt I1CTV4)
Assay: biochemical
property.label: IC50 (nM)

compound="C[C@@H](c1ncncc1F)[C@](O)(Cn1cncn1)c1ccc(F)cc1F [voriconazole]" property_label=IC50 unit_descriptor=nM value_qualifier=> observed=1000
compound="CC[C@@H]([C@H](C)O)n1ncn(-c2ccc(N3CCN(c4ccc(OC[C@@H]5CO[C@@](Cn6cncn6)(c6ccc(F)cc6F)C5)cc4)CC3)cc2)c1=O [posaconazole]" property_label=IC50 unit_descriptor=nM value_qualifier== observed=56

###

Biological target: RaCYP51-F1 + RaCPR (strain Y-F1/CPR) (Rhizopus delemar, UniProt I1CF49)
Construct: gene RO3G_11790; full-length, codon-optimized, C-terminal GGR linker and 6xHis; co-expressed with 6xHis RaCPR in S. cerevisiae ADΔΔ deleted of native ERG11; crude membranes; ~60 kDa; with NADPH--cytochrome P450 reductase
Sequence (I1CF49 entry or part of it, one chain of several): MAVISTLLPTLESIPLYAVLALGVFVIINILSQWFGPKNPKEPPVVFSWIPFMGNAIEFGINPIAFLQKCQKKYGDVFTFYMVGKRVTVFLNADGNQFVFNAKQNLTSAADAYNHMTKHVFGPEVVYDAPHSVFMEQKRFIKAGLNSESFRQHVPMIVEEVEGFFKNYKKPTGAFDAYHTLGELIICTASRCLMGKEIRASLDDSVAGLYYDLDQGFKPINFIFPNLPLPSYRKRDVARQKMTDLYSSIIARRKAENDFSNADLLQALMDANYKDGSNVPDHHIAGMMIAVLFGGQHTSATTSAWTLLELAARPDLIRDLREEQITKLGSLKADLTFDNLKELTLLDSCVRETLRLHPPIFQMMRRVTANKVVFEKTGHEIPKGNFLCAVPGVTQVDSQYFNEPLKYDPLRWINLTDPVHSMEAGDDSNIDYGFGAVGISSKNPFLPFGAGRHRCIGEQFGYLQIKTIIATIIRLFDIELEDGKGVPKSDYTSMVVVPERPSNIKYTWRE
Assay: inhibition of BOMCC hydrolysis in crude membranes, fluorescence
Type: biochemical
Details: read-out: Posaconazole IC50
property.label: IC50 (µM)

smiles_string=CC[C@@H]([C@H](C)O)n1ncn(-c2ccc(N3CCN(c4ccc(OC[C@@H]5CO[C@@](Cn6cncn6)(c6ccc(F)cc6F)C5)cc4)CC3)cc2)c1=O observed=0.021

###

Target: RaCYP51-F5 + RaCPR (strain Y-F5/CPR and variants) (Rhizopus delemar, UniProt I1CTV4, F129Y)
Construct: full-length, codon-optimized, C-terminal GGR linker and 6xHis; co-expressed with 6xHis RaCPR in S. cerevisiae ADΔΔ deleted of native ERG11; crude membranes; ~60 kDa; with NADPH--cytochrome P450 reductase
Experiment: inhibition of BOMCC hydrolysis in crude membranes, fluorescence
pIC50: −log10 of the molar value.
property.label: pIC50

smiles_string=CC[C@@H]([C@H](C)O)n1ncn(-c2ccc(N3CCN(c4ccc(OC[C@@H]5CO[C@@](Cn6cncn6)(c6ccc(F)cc6F)C5)cc4)CC3)cc2)c1=O property_label=pIC50 observed=7.12
smiles_string=C[C@@H](c1ncncc1F)[C@](O)(Cn1cncn1)c1ccc(F)cc1F property_label=pIC50 observed=6.85
